Some compounds, each annotated with its measured solubility.
Test: physchem
Conditions: water
Lab book: enter the figure in µg/mL, no units written.

Compound: COC(=O)Nc1nc2ccccc2[nH]1
solubility (µg/mL): 8
--
Compound: N#Cc1nn(-c2c(Cl)cc(C(F)(F)F)cc2Cl)c(N)c1[S+]([O-])C(F)(F)F (stereo not shown)
solubility (µg/mL): 3.78
--
Compound: CON=C(C(=O)OC)c1ccccc1CON=C(C)c1cccc(C(F)(F)F)c1
solubility (µg/mL): 0.61
--
Compound: CC(C)C1CCC(Cc2ccc(Cl)cc2)C1(O)Cn1cncn1 (stereo not shown)
solubility (µg/mL): 9.34
--
Compound: CC(C)(C)C(O)C(Oc1ccc(Cl)cc1)n1cncn1 (stereo not shown)
solubility (µg/mL): 72
--
Compound: CC(C)NC(=O)N1CC(=O)N(c2cc(Cl)cc(Cl)c2)C1=O
solubility (µg/mL): 6.8

Proceed to the following item.
For record CSC1=N[C@@](C)(c2ccccc2)C(=O)N1Nc1ccccc1 the listed solubility is 7.8

====

Experiment: Solubility in water of the active ingredient (Table 1)
The entries below are paired with their reported Solubility in Water.
Quick note: give the figure in µg/mL, leave out the unit.

Solved cases below.
Compound: O=[N+]([O-])NC1=NCCN1Cc1ccc(Cl)nc1 [Imidacloprid]
Endpoint Result: 610

Compound: Cc1nn(C)c(F)c1C(=O)Nc1ccccc1C(C)CC(C)C (stereo not shown) [Penflufen]
Endpoint Result: 10.9

Compound: CC1(C)C(C=C(Cl)Cl)C1C(=O)OC(C#N)c1ccc(F)c(Oc2ccccc2)c1 (stereo not drawn) [Beta-Cyfluthrin]
Endpoint Result: 0.0012

Please fill in: Solubility in Water reported for O=C(Nc1ccccc1)N(Cc1ccc(Cl)cc1)C1CCCC1 [Pencycuron] = 0.3

Lab book: Solubility in Water of N#Cc1ccccc1NC(=O)c1snc(Cl)c1Cl [Isotianil] noted as 0.5

Reported Solubility in Water ( N#Cc1c[nH]cc1-c1cccc2c1OC(F)(F)O2 [Fludioxinil] ) = 1.8

response.value for O=C1C=C(N(Cc2ccc(Cl)nc2)CC(F)F)CO1 [Flupyradifurone] (field: Solubility in Water) = 3200

====

Assay: Solubility in water of the active ingredient (Table 1)
Conditions: water
Readout Name: log10 of solubility (log10 of the value in µg/mL)
Heads up: the numbers are on a log10 scale; they represent solubility in µg/mL.

Study these solved cases before continuing.
Compound: N#C/N=C1\SCCN1Cc1ccc(Cl)nc1 [Thiacloprid]
log10 of solubility: 2.26
--
Compound: CN/C(=N\[N+](=O)[O-])NCc1cnc(Cl)s1 [Clothianidin]
log10 of solubility: 2.53
--
Compound: OC(Cc1ccccc1Cl)(Cn1nc[nH]c1=S)C1(Cl)CC1 (centres unmarked) [Prothioconazole]
log10 of solubility: 2.48
--
Compound: O=C(NCCc1ncc(C(F)(F)F)cc1Cl)c1ccccc1C(F)(F)F [Fluopyram]
log10 of solubility: 1.20
--
Compound: COCC(=O)N(c1c(C)cccc1C)C(C)C(=O)OC (centres unmarked) [Metalaxyl]
log10 of solubility: 3.92

Quick note, log10 of solubility for CS/C(C)=N\OC(=O)N(C)SN(C)C(=O)O/N=C(\C)SC [Thiodicarb] landed at 1.35

Input CO/N=C(/C1=NOCCO1)c1ccccc1Oc1ncnc(Oc2ccccc2Cl)c1F [Fluoxastrobin] . Output log10 of solubility: 0.36

Summary for this compound, CNC(=O)Oc1cc(C)c(SC)c(C)c1 [Methiocarb] : log10 of solubility is 1.43

====

Test: Density of the active ingredient (Table 1)
Type: physicochemical
# reported Density; entries follow
The figure you give is taken to be in g/mL; do not add the unit.

# count of solved cases: 5
Molecule: CC(C)(C)C(O)(CCc1ccc(Cl)cc1)Cn1cncn1 (stereo not drawn)
Readout Unit: g/mL
Density: 1.25
//
Molecule: CSC1=N[C@@](C)(c2ccccc2)C(=O)N1Nc1ccccc1
Readout Unit: g/mL
Density: 1.29
//
Molecule: O=C(Nc1ccccc1)N(Cc1ccc(Cl)cc1)C1CCCC1
Readout Unit: g/mL
Density: 1.22
//
Molecule: O=C(NCCc1ncc(C(F)(F)F)cc1Cl)c1ccccc1C(F)(F)F
Readout Unit: g/mL
Density: 1.53
//
Molecule: COC(=O)Nc1nc2ccccc2[nH]1
Readout Unit: g/mL
Density: 1.45

The value of Density measured for the molecule CC(C)C1CCC(Cc2ccc(Cl)cc2)C1(O)Cn1cncn1 (stereo not drawn) turned out to be 1.2

// Density lookup, molecule = CS/C(C)=N\OC(=O)N(C)SN(C)C(=O)O/N=C(\C)SC , result: 1.47

# Density of O=[N+]([O-])NC1=NCCN1Cc1ccc(Cl)nc1 = 1.54

Reported Density ( CN/C(=N\[N+](=O)[O-])NCc1cnc(Cl)s1 ) = 1.61

Memo: CON=C(C(=O)OC)c1ccccc1CON=C(C)c1cccc(C(F)(F)F)c1 , reported Density: 1.36

====

Experiment: Density of the active ingredient (Table 1)
Type: physicochemical
Readout Name: Density (g/mL)
Reply with just the number (in g/mL).

These solved cases illustrate the format of a correct answer.
Molecule: CC(C)NC(=O)N1CC(=O)N(c2cc(Cl)cc(Cl)c2)C1=O
Density, g/mL: 1

Molecule: O=C1C=C(N(Cc2ccc(Cl)nc2)CC(F)F)CO1
Density, g/mL: 1.43

Molecule: COCC(=O)N(c1c(C)cccc1C)C(C)C(=O)OC (centres unmarked) [Metalaxyl]
Density, g/mL: 1.2

Molecule: CC1(C)C(C=C(Cl)Cl)C1C(=O)OC(C#N)c1ccc(F)c(Oc2ccccc2)c1 (centres unmarked)
Density, g/mL: 1.35

Molecule: N#Cc1c[nH]cc1-c1cccc2c1OC(F)(F)O2
Density, g/mL: 1.54

// Density lookup, molecule = N#Cc1nn(-c2c(Cl)cc(C(F)(F)F)cc2Cl)c(N)c1[S+]([O-])C(F)(F)F (centres unmarked) , result: 1.71

Entry N#C/N=C1\SCCN1Cc1ccc(Cl)nc1 — recorded Density = 1.46

molecule O=c1c2cc(F)ccc2nc(-n2cncn2)n1-c1ccc(Cl)cc1Cl , Density observed: 1.58

Lab book: Density of OC(Cc1ccccc1Cl)(Cn1nc[nH]c1=S)C1(Cl)CC1 (centres unmarked) noted as 1.36

Density for CNC(=O)Oc1cc(C)c(SC)c(C)c1 is 1.25

====

The following compounds are shown together with reported Density values.
Test: Density of the active ingredient (Table 1)
Type: physicochemical
The figure you give is taken to be in g/mL; do not add the unit.

Just so you know, measured Density for Cc1c(F)c(F)c(COC(=O)[C@@H]2[C@H](/C=C(\Cl)C(F)(F)F)C2(C)C)c(F)c1F (racemic) came out at 1.48

Form field Density, entry CC(C)(C)C(O)C(Oc1ccc(Cl)cc1)n1cncn1 (stereo not shown) : 1.27

For CC[S+]([O-])c1c(C#N)nn(-c2c(Cl)cc(C(F)(F)F)cc2Cl)c1N (stereo not shown) the compound record lists Density as 1.69

Measured Density, CO/N=C(/C1=NOCCO1)c1ccccc1Oc1ncnc(Oc2ccccc2Cl)c1F : 1.42
